target: hCB2 (Homo sapiens); construct: purchased PerkinElmer ES111-M400UA; host or cells: CHO-K1 cells stably transfected; experiment: [35S]GTPγS binding assay in hCB2-CHO-K1 cell membranes; type: biochemical; conditions: read-out: GTPγS binding Emax
EXPERIMENTAL_READOUT: Emax (%)
Write the value in % as a bare number.

# Emax measured on hCB2 (Homo sapiens) for item COc1ccc2c(c1)sc(=NC(=O)C1C(C)(C)C1(C)C)n2CCOC(C)=O = -46

# Emax measured on hCB2 (Homo sapiens) for item CC(=O)OCCn1c(=NC(=O)C2C(C)(C)C2(C)C)sc2cc(Br)ccc21 = -23

# Emax measured on hCB2 (Homo sapiens) for item CCCCCCC(C)(C)c1ccc([C@@H]2C[C@H](O)CC[C@H]2CCCO)c(O)c1 [CP55,940, reference compound] = 275

# Emax measured on hCB2 (Homo sapiens) for item CC(=O)OCCn1c(=NC(=O)C2C(C)(C)C2(C)C)sc2cc(C)ccc21 = -35

# Emax measured on hCB2 (Homo sapiens) for item CC(=O)OCCn1c(C)c(C)s/c1=N\C(=O)C1C(C)(C)C1(C)C = 276

# Emax measured on hCB2 (Homo sapiens) for item CC(=O)OCCn1c(=NC(=O)C2C(C)(C)C2(C)C)sc2cc(OC(F)(F)F)ccc21 = -55

###

molecular target: hCB2 (Homo sapiens, UniProt P34972); construct: purchased PerkinElmer ES111-M400UA; host or cells: CHO-K1 cells stably transfected; experiment: [35S]GTPγS binding assay in hCB2-CHO-K1 cell membranes; type: biochemical; settings: hCB2-expressing CHO cell membranes (PerkinElmer)
Sequence (P34972 whole entry): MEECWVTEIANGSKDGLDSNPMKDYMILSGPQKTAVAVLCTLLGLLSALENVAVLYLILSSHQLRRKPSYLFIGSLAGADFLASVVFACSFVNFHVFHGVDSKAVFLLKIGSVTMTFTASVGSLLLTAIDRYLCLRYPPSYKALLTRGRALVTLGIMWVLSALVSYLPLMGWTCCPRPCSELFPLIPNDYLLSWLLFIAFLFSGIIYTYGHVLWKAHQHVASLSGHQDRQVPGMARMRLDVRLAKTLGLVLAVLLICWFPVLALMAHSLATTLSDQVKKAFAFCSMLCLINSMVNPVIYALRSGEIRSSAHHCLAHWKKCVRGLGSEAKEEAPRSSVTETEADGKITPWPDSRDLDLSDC
EXPERIMENTAL_READOUT: Functional effect on G-protein signaling (pharmacological category)

CC(=O)OCCn1c(=NC(=O)C2C(C)(C)C2(C)C)sc2cc(OC(F)(F)F)ccc21 : inverse agonism
CC(=O)OCCn1c(=NC(=O)C2C(C)(C)C2(C)C)sc2cc(C)ccc21 : inverse agonism
COc1ccc2c(c1)sc(=NC(=O)C1C(C)(C)C1(C)C)n2CCOC(C)=O : inverse agonism

###

molecular target: hCB2 (Homo sapiens); construct: purchased PerkinElmer ES111-M400UA; host or cells: CHO-K1 cells stably transfected; assay: Radioligand ([3H]CP-55,940) displacement binding in hCB2-CHO-K1 cell membranes; details: hCB2-expressing CHO cell membranes (PerkinElmer), [3H]CP-55,940 displacement; read-out: CB2R binding hCB2R-Ki
EXPERIMENTAL_READOUT: Ki (nM)
Write the value in nM as a bare number.

Quick note, Ki for CC(=O)OCCn1c(=NC(=O)C2C(C)(C)C2(C)C)sc2cc(Br)ccc21 [MRI-2654] landed at 0.079

Quick note, Ki for CC(=O)OCCn1c(C)c(C)s/c1=N\C(=O)C1C(C)(C)C1(C)C [MRI-2594] landed at 0.031

Quick note, Ki for CC(=O)OCCn1c(=NC(=O)C2C(C)(C)C2(C)C)sc2cc(C)ccc21 [MRI-2687] landed at 0.1

Quick note, Ki for COc1ccc2c(c1)sc(=NC(=O)C1C(C)(C)C1(C)C)n2CCOC(C)=O [MRI-2653] landed at 0.094

Quick note, Ki for CC(=O)OCCn1c(=NC(=O)C2C(C)(C)C2(C)C)sc2cc(OC(F)(F)F)ccc21 [MRI-2659] landed at 0.053

Where do the numbers come from? From paper PMC7881127.
